System: RS4;11 cells
Assay: RS4;11 cell viability assay (CellTiter Glo)
Assay type: cell-based, human
Conditions: Homo sapiens, RS4-11, 48 h, 50,000 cells per well, 10% human serum, 48 hours; read-out: RS4; 11 EC50 Values
Answer each item with its documented EC50.
Numbers only, in nM.

Solved entries (count: 3):
compound	target_under_test	quantity_unit	EC50
CC1(C)CC(c2ccc(Cl)cc2)=C(CN2CCN(c3ccc(C(=O)NS(=O)(=O)c4ccc(NCC5COCCO5)c([N+](=O)[O-])c4)c(Oc4cnc5[nH]ccc5c4)c3)CC2)CO1 (stereo not shown) [Example 31]	RS4;11 cells	nM	15.7
CC1(C)CCC(CN2CCN(c3ccc(C(=O)NS(=O)(=O)c4ccc(NC5CCN(C6CCOCC6)CC5)c([N+](=O)[O-])c4)c(Oc4cnc5[nH]ccc5c4)c3)CC2)=C(c2ccc(Cl)cc2)C1 [Example 3]	RS4;11 cells	nM	14.2
CC1(C)CCC(CC2CCN(c3ccc(C(=O)NS(=O)(=O)c4cnc(OCC5(O)CCC(F)(F)CC5)c(Cl)c4)c(Oc4cnc5[nH]ccc5c4)c3)CC2)=C(c2ccc(Cl)cc2)C1 [Example 302]	RS4;11 cells	nM	381

Please go through the list and note EC50 for each compound.
1. CC1(C)CCC(CN2CCN(c3ccc(C(=O)NS(=O)(=O)c4ccc(NCCC(F)(F)F)c([N+](=O)[O-])c4)c(Oc4cnc5[nH]ccc5c4)c3)CC2)=C(c2ccc(Cl)cc2)C1 [Example 27]
2. O=C(NS(=O)(=O)c1ccc(NCC2CCOCC2)c([N+](=O)[O-])c1)c1ccc(N2CCN(CC3=C(c4ccc(Cl)cc4)CCC4(CCCC4)C3)CC2)cc1Oc1cnc2[nH]ccc2c1 [Example 79]
3. CC1(C)CCC(CN2CCN(c3ccc(C(=O)NS(=O)(=O)c4cnc(OC[C@H]5C[C@H]6C[C@@H]5C[C@@]6(C)O)c(Cl)c4)c(Oc4cnc5[nH]ccc5c4)c3)CC2)=C(c2ccc(Cl)cc2)C1 [Example 343]
4. CC1(C)CCC(CN2CCN(c3ccc(C(=O)NS(=O)(=O)c4ccc(N[C@H]5CCN(CC(F)F)C5)c([N+](=O)[O-])c4)c(Oc4cnc5[nH]ccc5c4)c3)CC2)=C(c2ccc(Cl)cc2)C1 [Example 182]
5. CC1(C)CCC(CN2CCN(c3ccc(C(=O)NS(=O)(=O)c4ccc(NCC5CN(CCF)CCO5)c([N+](=O)[O-])c4)c(Oc4cnc5[nH]ccc5c4)c3)CC2)=C(c2ccc(Cl)cc2)C1 (stereo not shown) [Example 165]
6. CC1(C)CCC(CN2CCN(c3ccc(C(=O)NS(=O)(=O)c4ccc(NCCCN(C5CCC5)C5CC5)c([N+](=O)[O-])c4)c(Oc4cnc5[nH]ccc5c4)c3)CC2)=C(c2ccc(Cl)cc2)C1 [Example 320]

1. 332
2. 64.9
3. 127
4. 123
5. 5.1
6. 51

---

Tested on: RS4;11 cells
Assay: RS4;11 cell viability assay (CellTiter Glo)
Assay type: cell-based, human
Conditions: Homo sapiens, RS4-11, 48 h, 50,000 cells per well, 10% human serum, 48 hours; read-out: RS4; 11 EC50 Values
readout_type: EC50 (nM)
Give bare numbers, in nM.

Solved entries (count: 2):
molecule	quantity_unit	value_reported
CC1(C)CCC(CN2CCN(c3ccc(C(=O)NS(=O)(=O)c4ccc(OCC5(F)CCN(C6COC6)CC5)c([N+](=O)[O-])c4)c(Oc4cnc5[nH]ccc5c4)c3)CC2)=C(c2ccc(Cl)cc2)C1	nM	0.93
CC1(C)CCC(CN2CCN(c3ccc(C(=O)NS(=O)(=O)c4ccc(OCC5(C)CCOCC5)c([N+](=O)[O-])c4)c(Oc4cnc5[nH]ccc5c4)c3)CC2)=C(c2ccc(Cl)cc2)C1	nM	94.8

Moving on to the next molecule.
Item CC(=O)N1CCCC(CNc2ccc(S(=O)(=O)NC(=O)c3ccc(N4CCN(CC5=C(c6ccc(Cl)cc6)CC(C)(C)CC5)CC4)cc3Oc3cnc4[nH]ccc4c3)cc2[N+](=O)[O-])C1 (stereo not drawn) has what recorded EC50? 9.38

---

Tested on: RS4;11 cells
Experiment: RS4;11 cell viability assay (CellTiter Glo)
Type: cell-based, human
Conditions: Homo sapiens, RS4-11, 48 h, 50,000 cells per well, 10% human serum, 48 hours; read-out: RS4; 11 EC50 Values
Labelling field: enter TRUE if recorded EC50 is less than 40 nM. Enter FALSE if it equals or exceeds that cut-off.

compound	category_label
CC1(C)CCC(CN2CCN(c3ccc(C(=O)NS(=O)(=O)c4ccc(NCc5ccc(O)cc5)c([N+](=O)[O-])c4)c(Oc4cnc5[nH]ccc5c4)c3)CC2)=C(c2ccc(Cl)cc2)C1 [Example 185]	TRUE
CCN1CCOCC1COc1ncc(S(=O)(=O)NC(=O)c2ccc(N3CCN(CC4=C(c5ccc(Cl)cc5)CC(C)(C)CC4)CC3)cc2Oc2cnc3[nH]ccc3c2)cc1Br (centres unmarked) [Example 102]	FALSE
CC1(C)CCC(CN2CCN(c3ccc(C(=O)NS(=O)(=O)c4ccc(OCC5C[C@H]6C=C[C@@H]5C6)c([N+](=O)[O-])c4)c(Oc4cnc5[nH]ccc5c4)c3)CC2)=C(c2ccc(Cl)cc2)C1 (some centres unmarked) [Example 201]	FALSE
CN1CC(Nc2ccc(S(=O)(=O)NC(=O)c3ccc(N4CCN(CC5=C(c6ccc(Cl)cc6)CC(C)(C)CC5)CC4)cc3Oc3cnc4[nH]ccc4c3)cc2[N+](=O)[O-])CC1=O (centres unmarked) [Example 202]	FALSE

Field: below-cutoff. Rule: recorded EC50 strictly less than 40 nM. Subject: O=C(NS(=O)(=O)c1ccc(NCC2CCOCC2)c([N+](=O)[O-])c1)c1ccc(N2CCN(Cc3ccccc3-c3ccc(Cl)cc3)CC2)cc1Oc1cnc2[nH]ccc2c1 [Example 1] FALSE

---

Answer each item with its documented EC50.
System: RS4;11 cells
Assay: RS4;11 cell viability assay (CellTiter Glo);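 also: acute lymphoblastic leukemia line RS4,11, EC50 derived from percentage of viable cells after treatment relative to untreated controls, cell killing taken as a measure of Bcl-2 inhibition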
Format: cell-based, human
Conditions: Homo sapiens, RS4-11, 48 h, 50,000 cells per well, 10% human serum, 48 hours; read-out: RS4; 11 EC50 Values
Give bare numbers, in nM.

Solved entries (count: 4):
compound	target_under_test	EC50 (nM)
CC1(C)CCC(CN2CCN(c3ccc(C(=O)NS(=O)(=O)c4ccc(N[C@H]5CC[C@H](N(C6CC6)C6CC6)CC5)c([N+](=O)[O-])c4)c(Oc4cnc5[nH]ccc5c4)c3)CC2)=C(c2ccc(Cl)cc2)C1	RS4;11 cells	137
CC1(C)CCC(CN2CCN(c3ccc(C(=O)NS(=O)(=O)c4ccc(NCc5ccc(OCCN6CCOCC6)cc5)c([N+](=O)[O-])c4)c(Oc4cnc5[nH]ccc5c4)c3)CC2)=C(c2ccc(Cl)cc2)C1	RS4;11 cells	36.2
CC1(C)CCC(CN2CCN(c3ccc(C(=O)NS(=O)(=O)c4ccc(NC[C@@H]5CC[C@@H](O)C5)c([N+](=O)[O-])c4)c(Oc4cnc5[nH]ccc5c4)c3)CC2)=C(c2ccc(Cl)cc2)C1	RS4;11 cells	8.05
CC1(C)CCC(CN2CCN(c3ccc(C(=O)NS(=O)(=O)c4ccc(NCC5CCC(C)(C#N)CC5)c([N+](=O)[O-])c4)c(Oc4cnc5[nH]ccc5c4)c3)CC2)=C(c2ccc(Cl)cc2)C1 (stereo not shown)	RS4;11 cells	16.5

Please go through the list and note EC50 for each compound.
1. O=C(NS(=O)(=O)c1ccc(NCCCN2CCOCC2)c([N+](=O)[O-])c1)c1ccc(N2CCN(Cc3ccccc3-c3ccc(Cl)cc3)CC2)cc1Oc1ccc2[nH]ccc2c1
2. CC1(C)CCC(CN2CCN(c3ccc(C(=O)NS(=O)(=O)c4ccc(NC5CCN(C6CCC6)CC5)c([N+](=O)[O-])c4)c(Oc4cnc5[nH]ccc5c4)c3)CC2)=C(c2ccc(Cl)cc2)C1
3. CC1(C)CCC(CN2CCN(c3ccc(C(=O)NS(=O)(=O)c4ccc(NCCCN5CCOCC5)c([N+](=O)[O-])c4)c(Oc4cnc5[nH]ccc5c4)c3)CC2)=C(c2ccc(Cl)cc2)C1

1. 447
2. 12.8
3. 13.2

Please go through the list and note EC50 for each compound.
1. O=C(NS(=O)(=O)c1ccc(NCC2CN(C3CC3)CCO2)c([N+](=O)[O-])c1)c1ccc(N2CCN(CC3=C(c4ccc(Cl)cc4)CC4(CC3)CC4)CC2)cc1Oc1cnc2[nH]ccc2c1 (stereo not shown)
2. CC1(C)CCC(CN2CCN(c3ccc(C(=O)NS(=O)(=O)c4ccc(N[C@H]5CC[C@@H](N6CCOCC6)C5)c([N+](=O)[O-])c4)c(Oc4cnc5[nH]ccc5c4)c3)CC2)=C(c2ccc(Cl)cc2)C1
3. CC1(C)CCC(CN2CCN(c3ccc(C(=O)NS(=O)(=O)c4ccc(NCC5CCOCC5)c(Cl)c4)c(Oc4cnc5[nH]ccc5c4)c3)CC2)=C(c2ccc(Cl)cc2)C1

[9.78, 14.5, 553]
